// data source = ChEMBL document CHEMBL1152085

Tested on: Staphylococcus epidermidis
Assay: Tested in vitro for minimum inhibitory concentration to produce antibacterial activity against Staphylococcus epidermidis 3519
Assay type: functional
// MIC lookup, one value per entry
Give the value, in units of µg/mL, as a plain number.

// solved cases for MIC follow
structureNotation | valueUnit | MIC
CCO/N=C1\[C@H](C)C[C@@](C)(OC)[C@H](O[C@@H]2O[C@H](C)C[C@H](N(C)C)[C@H]2O)[C@@H](C)C[C@@H](C)C(=O)O[C@H](CC)[C@@](C)(O)[C@H](O)[C@H]1C | µg/mL | 25
CC[C@H]1OC(=O)[C@H](C)C[C@H](C)[C@@H](O[C@@H]2O[C@H](C)C[C@H](N(C)C)[C@H]2O)[C@](C)(OC)C[C@@H](C)C(=O)[C@H](C)[C@H]2OC(=O)O[C@@]21C | µg/mL | 6.2
CC[C@H]1OC(=O)[C@H](C)[C@@H](OC(=S)SC)[C@H](C)[C@@H](O[C@@H]2O[C@H](C)C[C@H](N(C)C)[C@H]2O)[C@](C)(OC)C[C@@H](C)C(=O)[C@H](C)[C@@H](O)[C@]1(C)O | µg/mL | 25
CC[C@H]1OC(=O)[C@H](C)C[C@H](C)[C@@H](O[C@@H]2O[C@H](C)C[C@H](N(C)C)[C@H]2O)[C@](C)(OC)C[C@@H](C)C2=NCCN3C(=O)O[C@@]1(C)[C@H]3[C@H]2C | µg/mL | 12.5
CC[C@H]1OC(=O)[C@H](C)C(=O)[C@H](C)[C@@H](O[C@@H]2O[C@H](C)C[C@H](N(C)C)[C@H]2O)[C@](C)(OC)C[C@@H](C)C(=O)[C@H](C)[C@@H](O)[C@]1(C)O | µg/mL | 0.39
CC[C@H]1OC(=O)[C@H](C)[C@@H](O[C@H]2C[C@@](C)(OC)[C@@H](O)[C@H](C)O2)[C@H](C)[C@@H](O[C@@H]2O[C@H](C)C[C@H](N(C)C)[C@H]2O)[C@](C)(OC)C[C@@H](C)C(=O)[C@H](C)[C@@H](O)[C@]1(C)O | µg/mL | 0.12

With those in mind, consider the next molecule.
Req: Returns the measured MIC for the input molecule. Input: CC[C@H]1OC(=O)[C@H](C)C[C@H](C)[C@@H](O[C@@H]2O[C@H](C)C[C@H](N(C)C)[C@H]2O)[C@](C)(OC)C[C@@H](C)C(=O)[C@H](C)[C@@H](O)[C@]1(C)O
Resp: 50

----------
System: Escherichia coli
Test: Tested in vitro for minimum inhibitory concentration to produce antibacterial activity against Escherichia coli SS
Format: functional
measurementName: MIC

Reference set, count: 5
structureNotation | MIC
CC[C@H]1OC(=O)[C@H](C)C[C@H](C)[C@@H](O[C@@H]2O[C@H](C)C[C@H](N(C)C)[C@H]2O)[C@](C)(OC)C[C@@H](C)C(=O)[C@H](C)[C@H]2OC(=O)O[C@@]21C | 0.78 µg/mL
CC[C@H]1OC(=O)[C@H](C)C[C@H](C)[C@@H](O[C@@H]2O[C@H](C)C[C@H](N(C)C)[C@H]2O)[C@](C)(OC)C[C@@H](C)C(=O)/C(C)=C/[C@]1(C)O | > 100 µg/mL
CC[C@H]1OC(=O)[C@H](C)C[C@H](C)[C@@H](O[C@@H]2O[C@H](C)C[C@H](N(C)C)[C@H]2O)[C@](C)(OC)C[C@@H](C)/C(=N\OC)[C@H](C)[C@@H](O)[C@]1(C)O | 6.2 µg/mL
CC[C@H]1OC(=O)[C@H](C)C[C@H](C)[C@@H](O[C@@H]2O[C@H](C)C[C@H](N(C)C)[C@H]2O)[C@](C)(OC)C[C@@H](C)/C(=N\O)[C@H](C)[C@@H](O)[C@]1(C)O | 0.78 µg/mL
CC[C@H]1OC(=O)[C@H](C)[C@@H](OC(=S)SC)[C@H](C)[C@@H](O[C@@H]2O[C@H](C)C[C@H](N(C)C)[C@H]2O)[C@](C)(OC)C[C@@H](C)C(=O)[C@H](C)[C@@H](O)[C@]1(C)O | 0.39 µg/mL

Req: Write down the reported MIC of CC[C@H]1OC(=O)[C@H](C)[C@@H](O[C@H]2C[C@@](C)(OC)[C@@H](O)[C@H](C)O2)[C@H](C)[C@@H](O[C@@H]2O[C@H](C)C[C@H](N(C)C)[C@H]2O)[C@](C)(OC)C[C@@H](C)C(=O)[C@H](C)[C@@H](O)[C@]1(C)O , test system: Escherichia coli.
Resp: 0.39 µg/mL

----------
Test system: Staphylococcus aureus
Test: Tested in vitro for minimum inhibitory concentration to produce antibacterial activity against Staphylococcus aureus A-5278
Assay type: functional
measurementName: MIC

Req: Given the entry CC[C@H]1OC(=O)[C@H](C)C[C@H](C)[C@@H](O[C@@H]2O[C@H](C)C[C@H](N(C)C)[C@H]2O)[C@](C)(OC)C[C@@H](C)C(=O)[C@H](C)[C@H]2N(CCCCc3ccccc3)C(=O)O[C@]12C , what MIC was observed with Staphylococcus aureus?
Resp: 50 µg/mL

Req: // fetch Staphylococcus aureus MIC for CCO/N=C1\[C@H](C)C[C@@](C)(OC)[C@H](O[C@@H]2O[C@H](C)C[C@H](N(C)C)[C@H]2O)[C@@H](C)C[C@@H](C)C(=O)O[C@H](CC)[C@@](C)(O)[C@H](O)[C@H]1C
Resp: > 100 µg/mL

Req: So what MIC did CC[C@H]1OC(=O)[C@H](C)[C@@H](O[C@H]2C[C@@](C)(OC)[C@@H](O)[C@H](C)O2)[C@H](C)[C@@H](O[C@@H]2O[C@H](C)C[C@H](N(C)C)[C@H]2O)[C@](C)(OC)C[C@@H](C)C(=O)[C@H](C)[C@@H](O)[C@]1(C)O [CLARITHROMYCIN] get with Staphylococcus aureus?
Resp: > 100 µg/mL

----------
Let's look at some compounds and their measured MIC.
System: Staphylococcus aureus
Assay: Tested in vitro for minimum inhibitory concentration to produce antibacterial activity against Staphylococcus aureus CMX 642A
Format: functional
Quick note: number first, unit second.

In the examples that follow, each entry is paired with its recorded MIC.
structureNotation | MIC
CC[C@H]1OC(=O)[C@H](C)C[C@H](C)[C@@H](O[C@@H]2O[C@H](C)C[C@H](N(C)C)[C@H]2O)[C@](C)(OC)C[C@@H](C)C(=O)[C@H](C)[C@H]2N(CCCCc3ccccc3)C(=O)O[C@]12C | 1.56 µg/mL
CC[C@H]1OC(=O)[C@H](C)C[C@H](C)[C@@H](O[C@@H]2O[C@H](C)C[C@H](N(C)C)[C@H]2O)[C@](C)(OC)C[C@@H](C)/C(=N\O)[C@H](C)[C@@H](O)[C@]1(C)O | 12.5 µg/mL
CC[C@H]1OC(=O)[C@H](C)C(=O)[C@H](C)[C@@H](O[C@@H]2O[C@H](C)C[C@H](N(C)C)[C@H]2O)[C@](C)(OC)C[C@@H](C)C(=O)[C@H](C)[C@@H](O)[C@]1(C)O | 0.39 µg/mL
CC[C@H]1OC(=O)[C@H](C)C[C@H](C)[C@@H](O[C@@H]2O[C@H](C)C[C@H](N(C)C)[C@H]2O)[C@](C)(OC)C[C@@H](C)C(=O)[C@H](C)[C@@H](O)[C@]1(C)O | 25 µg/mL

With those in mind, consider the next compound.
Req: Hi! What's the reported MIC for CC[C@H]1OC(=O)[C@H](C)C[C@H](C)[C@@H](O[C@@H]2O[C@H](C)C[C@H](N(C)C)[C@H]2O)[C@](C)(OC)C[C@@H](C)C(=O)[C@H](C)[C@H]2N(CCc3ccc(Oc4ccccc4)cc3)C(=O)O[C@]12C on Staphylococcus aureus?
Resp: 12.5 µg/mL

----------
System: Staphylococcus aureus
Test: Tested in vitro for minimum inhibitory concentration to produce antibacterial activity against Staphylococcus aureus CMX 642A
Assay type: functional
measurementName: log10 MIC (log10 of the value in µg/mL)
Plainly stated, the numbers are log10 of MIC given in µg/mL.

Here is how some molecules turned out for log10 MIC.
molecule | log10 MIC
CC[C@H]1OC(=O)[C@H](C)[C@@H](OC(=S)SC)[C@H](C)[C@@H](O[C@@H]2O[C@H](C)C[C@H](N(C)C)[C@H]2O)[C@](C)(OC)C[C@@H](C)C(=O)[C@H](C)[C@@H](O)[C@]1(C)O | 1.40
CCO/N=C1\[C@H](C)C[C@@](C)(OC)[C@H](O[C@@H]2O[C@H](C)C[C@H](N(C)C)[C@H]2O)[C@@H](C)C[C@@H](C)C(=O)O[C@H](CC)[C@@](C)(O)[C@H](O)[C@H]1C | 1.70
CC[C@H]1OC(=O)[C@H](C)C[C@H](C)[C@@H](O[C@@H]2O[C@H](C)C[C@H](N(C)C)[C@H]2O)[C@](C)(OC)C[C@@H](C)/C(=N\OC)[C@H](C)[C@@H](O)[C@]1(C)O | 2.00

Req: Find the recorded log10 MIC belonging to CC[C@H]1OC(=O)[C@H](C)C[C@H](C)[C@@H](O[C@@H]2O[C@H](C)C[C@H](N(C)C)[C@H]2O)[C@](C)(OC)C[C@@H](C)C(=O)[C@H](C)[C@H]2OC(=O)O[C@@]21C and report it.
Resp: 0.49

Req: Fill blank: measured log10 MIC of the molecule CC[C@H]1OC(=O)[C@H](C)[C@@H](O[C@H]2C[C@@](C)(OC)[C@@H](O)[C@H](C)O2)[C@H](C)[C@@H](O[C@@H]2O[C@H](C)C[C@H](N(C)C)[C@H]2O)[C@](C)(OC)C[C@@H](C)C(=O)[C@H](C)[C@@H](O)[C@]1(C)O [CLARITHROMYCIN] is ____.
Resp: -1.52

Req: Name the reported log10 MIC value associated with the molecule CC[C@H]1OC(=O)[C@H](C)C[C@H](C)[C@@H](O[C@@H]2O[C@H](C)C[C@H](N(C)C)[C@H]2O)[C@](C)(OC)C[C@@H](C)C2=NCCN3C(=O)O[C@@]1(C)[C@H]3[C@H]2C
Resp: 0.79
